solubility values for the compounds below.
# Experiment: Solubility of the compound at pH 6.8
# Type: physicochemical
# Condition info: buffer

# annotated cases, reported solubility shown
// sample CC(=O)NC(C)c1ccc2nc(-c3ccc(Oc4cccc(OCC5CC5)c4)cn3)oc2c1 (centres undefined) , its solubility was 5.8 µg/mL

// sample CC(=O)NC(C)c1ccc2sc(-c3ccc(Oc4cccc(OCC5CC5)c4)nc3)nc2c1 (centres undefined) , its solubility was < 0.12 µg/mL

// sample CC(=O)NC(C)c1cccc(OCc2ccc(Oc3cccc(OCC4CC4)c3)cc2)c1 (centres undefined) , its solubility was < 0.23 µg/mL

Here is another compound to look at.
// sample CCCCOc1cccc(OC2CN(c3nc4ccc(C(C)NC(C)=O)cc4o3)C2)c1 (centres undefined) , its solubility was 8.2 µg/mL
